- measuredTarget: IDH1 R132H (Homo sapiens, UniProt O75874, R132H)
- Sequence (O75874 whole entry R132H): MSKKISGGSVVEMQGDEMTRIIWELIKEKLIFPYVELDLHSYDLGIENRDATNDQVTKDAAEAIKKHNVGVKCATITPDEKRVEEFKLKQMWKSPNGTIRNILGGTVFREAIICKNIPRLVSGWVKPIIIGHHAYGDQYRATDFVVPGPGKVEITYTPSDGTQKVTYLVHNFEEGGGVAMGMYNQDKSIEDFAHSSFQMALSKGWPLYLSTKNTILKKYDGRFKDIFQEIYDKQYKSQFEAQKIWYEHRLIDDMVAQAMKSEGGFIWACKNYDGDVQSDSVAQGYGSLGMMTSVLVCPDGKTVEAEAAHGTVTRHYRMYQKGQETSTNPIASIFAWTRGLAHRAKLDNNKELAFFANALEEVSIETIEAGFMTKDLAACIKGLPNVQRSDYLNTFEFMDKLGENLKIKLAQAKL
- experimentalDetails: Assay for IDH1 R132H inhibitors (NADPH/aKG, resazurin detection)
- Format: biochemical
- testContext: enzyme assay of Example 12; read-out: IDH1R132H IC50
resultType: IC50

Consider the worked cases shown below.
COCCC(=O)N1CCN(c2nc(C3CC3)c(-c3ccnc(OS(=O)(=O)C(F)(F)F)c3)cc2C#N)C[C@H]1C = 1000 to 10000 nM
C=Cc1cc(-c2cc(C#N)c(N3CCN(C(=O)C4CC4)[C@H](C4CC4)C3)nc2C2CC2)cnn1 = < 500 nM
C=Cc1cc(-c2c(C3CC3)nc(N3CCN(C(=O)C[C@H]4CCO4)[C@H](C4CC4)C3)c(C#N)c2C)cnn1 = < 500 nM
C=Cc1cc(-c2cc(C#N)c(N3CCN(C(=O)CCOC)[C@H](C)C3)nc2C2CC2)ncn1 = < 500 nM
COCCC(=O)N1CCN(c2nc(C3CC3)c(-c3ccccc3CO)cc2C#N)C[C@H]1C = 500 to 1000 nM

Parameter requested: IC50. Apply to each item below.
1. COCCC(=O)N1CCN(c2nc(C3CC3)c(-c3ccc(CNS(C)(=O)=O)cc3)c(C)c2C#N)C[C@H]1C
2. N#Cc1cc(-c2cccc3cnccc23)c(C2CC2)nc1N1CCN(C(=O)c2ccoc2)[C@H](C2CC2)C1
3. COCCC(=O)N1CCN(c2nc(C3CC3)c(Nc3cc(C#N)ccn3)cc2C#N)C[C@H]1C1CC1
4. C=Cc1cncc(-c2cc(C#N)c(N3CCN(C(=O)C4CC4)[C@H](C4CC4)C3)nc2C2CC2)n1
5. C=Cc1cc(-c2cc(C#N)c(N3CCN(C(=O)CCCOC)[C@H](C4CC4)C3)nc2C2CC2)ccn1

["< 500 nM", "< 500 nM", "< 500 nM", "500 to 1000 nM", "< 500 nM"]

###

- measuredTarget: IDH1 R132H (Homo sapiens, UniProt O75874, R132H)
- experimentalDetails: Assay for IDH1 R132H inhibitors (NADPH/aKG, resazurin detection)
- Format: biochemical
- testContext: enzyme assay of Example 12; read-out: IDH1R132H IC50
pIC50: −log10 of the molar value.
Assign pIC50 to each entry below.

Parameter requested: pIC50. Apply to each item below.
1. N#Cc1cc(-c2cccc3cnccc23)c(C2CC2)nc1N1CCN(C(=O)C2CC2)[C@H](C2CC2)C1 [Compound 391]
2. C=Cc1nccc(-c2cc(C#N)c(N3CCN(C(=O)C4CC4)[C@H](C4CC4)C3)nc2C2CC2)n1 [Compound 496]
3. COCCC(=O)N1CCN(c2nc(C3CC3)c(-c3ccc(N)cc3)c(C)c2C#N)C[C@H]1C [Compound 411]

1. > 6.30
2. 6.00 to 6.30
3. > 6.30

Parameter requested: pIC50. Apply to each item below.
1. COCCC(=O)N1CCN(c2nc(C3CC3)c(-c3ccc(CNC(C)=O)cc3)c(C)c2C#N)C[C@H]1C [Compound 340]
2. C=Cc1ccnc(Nc2cc(C#N)c(N3CCN(C(=O)CCOC)[C@H](C)C3)nc2C2CC2)c1 [Compound 647]
3. COCCC(=O)N1CCN(c2nc(C3CC3)c(Nc3cnc4ccccc4c3)cc2C#N)C[C@H]1C [Compound 339]
4. COCCC(=O)N1CCN(c2nc(C3CC3)c(-c3cccc(NS(C)(=O)=O)c3)c(C)c2C#N)C[C@H]1C [Compound 350]
5. COCCC(=O)N1CCN(c2nc(C3CC3)c(-c3ccc4[nH]ncc4c3)cc2C#N)C[C@H]1C [Compound 295]
6. COCCC(=O)N1CCN(c2nc(C3CC3)c(-c3cccc(NC(=O)[C@H](C)Cl)c3)cc2C#N)C[C@H]1C [Compound 447]
7. C=CS(=O)(=O)N(C)c1cccc(-c2cc(C#N)c(N3CCN(C(=O)CCOC)[C@H](C)C3)nc2C2CC2)c1 [Compound 446]

["> 6.30", "> 6.30", "6.00 to 6.30", "> 6.30", "> 6.30", "6.00 to 6.30", "> 6.30"]

Parameter requested: pIC50. Apply to each item below.
1. COCCC(=O)N1CCN(c2nc(C3CC3)c(-c3ccc(C)c(F)c3)c(C)c2C#N)C[C@H]1C [Compound 266]
2. C=Cc1cc(-c2cc(C#N)c(N3CCN(C(=O)CCO)[C@H](C4CC4)C3)nc2C2CC2)c2ccccc2n1 [Compound 571]
3. C=CC(=O)N(c1cc(C#N)c(N2CCN(C(=O)CCOC)[C@H](C)C2)nc1C1CC1)c1ccnc2ccccc12 [Compound 712]
4. C=Cc1cc(-c2c(C3CC3)nc(N3CCN(C(=O)CCO)[C@H](C4CC4)C3)c(C#N)c2C)cnn1 [Compound 776]

1: > 6.30; 2: > 6.30; 3: > 6.30; 4: > 6.30

Would you please give the reported pIC50 of C=Cc1cc(Nc2c(C3CC3)nc(N3CCN(C(=O)CCOC)[C@H](C(C)C)C3)c(C#N)c2C)ccn1 [Compound 807] with IDH1 R132H (Homo sapiens, UniProt O75874, R132H)?
> 6.30

###

- measuredTarget: IDH1 R132H (Homo sapiens, UniProt O75874, R132H)
- experimentalDetails: Assay for IDH1 R132H inhibitors (NADPH/aKG, resazurin detection)
- Type: biochemical
- testContext: enzyme assay of Example 12; read-out: IDH1R132H IC50
pIC50: −log10 of the molar value.
Assign pIC50 to each entry below.

COCCC(=O)N1CCN(c2nc(C3CC3)c(OCc3cccc(C#N)c3)cc2C#N)C[C@H]1C = > 6.30
C=Cc1ccnc(Nc2cc(C#N)c(N3CCN(C(=O)CN4CCCC4=O)[C@H](C4CC4)C3)nc2C2CC2)c1 = 6.00 to 6.30
C=Cc1ccnc(Nc2c(C3CC3)nc(N3CCN(C(=O)CCO)[C@H](C4CC4)C3)c(C#N)c2C)c1 = > 6.30
COCCC(=O)N1CCN(c2nc(C3CC3)c(N3CCOCC3)cc2C#N)C[C@H]1C = 6.00 to 6.30
C=Cc1cc(-c2cc(C#N)c(N3CCN(C(=O)CC(F)(F)F)[C@H](C)C3)nc2C2CC2)ccn1 = > 6.30

Parameter requested: pIC50. Apply to each item below.
1. C=Cc1cc(-c2cc(C#N)c(N3CCN(C(=O)CCO)[C@H](C4CC4)C3)nc2C2CC2)ccn1
2. COCCC(=O)N1CCN(c2nc(C3CC3)c(-c3ccc(C(N)=O)cc3)cc2C#N)C[C@H]1C
3. C=Cc1cc(-c2cc(C#N)c(N3CCN(C(=O)CCOC)[C@H](C)C3)nc2C2CC2)c2ccccc2n1

["> 6.30", "> 6.30", "> 6.30"]

Parameter requested: pIC50. Apply to each item below.
1. N#Cc1cc(-c2cn[nH]c2)c(C2CC2)nc1N1CCN(C(=O)C2CC2)[C@H](C2CC2)C1
2. C=Cc1cc(-c2cc(C#N)c(N3CCN(C(=O)CCO)[C@H](C4CC4)C3)nc2C2CC2)c2ccncc2n1
3. COCCC(=O)N1CCN(c2nc(C3CC3)c(-c3ccc4ncsc4c3)cc2C#N)C[C@H]1C
4. C=Cc1cc(Nc2cc(C#N)c(N3CCN(C(=O)CCOC)[C@H](C)C3)nc2C2CC2)c2cccnc2n1
5. C=Cc1cc(-c2cc(C#N)c(N3CCN(C(=O)COC)[C@H](C(C)C)C3)nc2C2CC2)c2ccncc2n1
6. N#Cc1cc(-c2cnnc(O)c2)c(C2CC2)nc1N1CCN(C(=O)CCO)[C@H](C2CC2)C1
7. COCCC(=O)N1CCN(c2nc(C3CC3)c(-c3ccc4c(c3)NC(=O)C4)cc2C#N)C[C@H]1C

["6.00 to 6.30", "> 6.30", "> 6.30", "> 6.30", "> 6.30", "> 6.30", "> 6.30"]

Parameter requested: pIC50. Apply to each item below.
1. C=Cc1cc(-c2cc(C#N)c(N3CCN(C(=O)C4(O)CC4)[C@H](C)C3)nc2C2CC2)ccn1
2. CC1CN(c2nc(C3CC3)c(-c3cccc4cnccc34)cc2C#N)CC(F)CN1C(=O)C1CC1 (stereo not drawn)
3. CCO[C@H]1C[C@@H]1C(=O)N1CCN(c2nc(C3CC3)c(-c3ccc(F)cc3)cc2C#N)C[C@H]1C1CC1
4. C=CC(=O)Nc1cccc(-c2cc(C#N)c(N3CCN(C(=O)CCOC)[C@H](C)C3)nc2C2CC2)c1
5. CCc1cc(-c2cc(C#N)c(N3CCN(C(=O)CCOC)[C@H](C)C3)nc2C2CC2)ccn1
6. C=Cc1cc(-c2cc(C#N)c(N3CCN(C(=O)CCO)C(C)C3)nc2C2CC2)ccn1 (stereo not drawn)
7. COCCC(=O)N1CCN(c2nc(C3CC3)c(-c3cccc4cnc(C)cc34)cc2C#N)C[C@H]1C
8. COCCC(=O)N1CCN(c2nc(C3CC3)c(-c3cccc(NS(=O)(=O)CCl)c3)cc2C#N)C[C@H]1C

["> 6.30", "6.00 to 6.30", "6.00 to 6.30", "> 6.30", "6.00 to 6.30", "> 6.30", "> 6.30", "6.00 to 6.30"]

Note pIC50 for the compound shown: COCCC(=O)N1CCN(c2nc(C3CC3)c(OC(c3ccccc3)C(C)C)cc2C#N)C[C@H]1C (stereo partly drawn)
> 6.30
